assay: The drug is tested on Ruminococcus torques strain: ATCC27756 for biotransformation. The drug concentrations were measured before and after a 12-h incubation by liquid-chromatography-coupled mass spectrometry (LC–MS); format: ADME; design: dose 2 uM, timepoint 0 vs 12 hours; conditions: 2 µM
ASSAY METRIC: Bacterial Biotransformation

Completed entries (count: 5):
CCc1nn(CCCN2CCN(c3cccc(Cl)c3)CC2)c(=O)n1CCOc1ccccc1 [NEFAZODONE]	Compound NOT metabolized
CN(C)CC(c1ccc(O)cc1)C1(O)CCCCC1.O=C(O)CCC(=O)O (stereo unspecified) [DESVENLAFAXINE SUCCINATE]	Compound NOT metabolized
COc1ccc2[nH]c([S+]([O-])Cc3ncc(C)c(OC)c3C)nc2c1 (stereo unspecified) [OMEPRAZOLE]	Compound metabolized
O=c1[nH]c2ccccc2n1CCCN1CCC(n2c(=O)[nH]c3cc(Cl)ccc32)CC1 [DOMPERIDONE]	Compound NOT metabolized
O=P1(N(CCCl)CCCl)NCCCO1 (stereo unspecified) [CYCLOPHOSPHAMIDE ANHYDROUS]	Compound NOT metabolized

Entry under test: CC(=O)Oc1ccc(C(c2ccc(OC(C)=O)cc2)c2ccccn2)cc1 [BISACODYL] . Its Bacterial Biotransformation was Compound metabolized

Where do the numbers come from? From ChEMBL document CHEMBL5303573.
